Can you tell me log10 EC50 for the items I'm about to list?
- experimental system: human FXR alpha ligand binding domain (Homo sapiens, UniProt Q96RI1)
- Sequence (Q96RI1 187-472 isoform Q96RI1-2): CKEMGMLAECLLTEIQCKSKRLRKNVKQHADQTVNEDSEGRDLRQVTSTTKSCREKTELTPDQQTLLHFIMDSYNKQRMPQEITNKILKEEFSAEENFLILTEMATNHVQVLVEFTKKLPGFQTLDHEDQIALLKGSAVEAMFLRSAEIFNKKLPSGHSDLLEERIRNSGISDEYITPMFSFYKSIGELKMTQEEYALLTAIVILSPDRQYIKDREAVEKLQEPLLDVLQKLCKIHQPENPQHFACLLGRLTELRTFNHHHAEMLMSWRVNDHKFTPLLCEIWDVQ
- protocol details: FRET activity assay (ligand mediated cofactor peptide interaction, LANCE)
- setup conditions: GST-FXR-LBD / biotinylated SRC-1 peptide (676-700), read-out: F EC50
Log10 applied to EC50; unit prior to transform: nM.

Please look at the items below and tell me log10 EC50 for each one, in order.
1. O=C(O)c1ccc([C@]2(O)CC[C@@H](OCc3c(-c4c(Cl)cccc4Cl)noc3C3CC3)CC2)c(F)c1
2. Cc1onc(-c2c(Cl)cccc2Cl)c1CO[C@H]1C[C@H]2CC[C@@H](C1)[C@]2(O)c1nc2ccc(C(=O)O)cc2s1
3. O=C(O)c1ccc2nc([C@]3(O)CC[C@@H](OCc4c(-c5c(C(F)F)cccc5C(F)F)noc4C4CC4)CC3)sc2c1
4. O=C(O)c1ccc2sc([C@]3(O)CC[C@@H](OCc4c(-c5c(Cl)cccc5Cl)noc4C4CC4)CC3)nc2c1
5. O=C(O)c1cc(F)c2nc([C@]3(O)C[C@@H](OCc4c(-c5c(Cl)cccc5Cl)noc4C4CC4)C3)sc2c1
6. O=C(O)c1cc(F)c2nc(C3(O)C[C@H]4CC(OCc5c(-c6c(Cl)cccc6Cl)noc5C5CC5)C[C@H]4C3)sc2c1 (stereo partly drawn)

OUT:
[1.78, 2.43, 2.54, 1.32, 1.36, 1.64]
